Please provide measured IC50 for the entries that follow.
# tgt: c20S (constitutive 20S proteasome) (Homo sapiens, UniProt P20618+P28074)
# assayProcedure: 20S proteasome assay, chymotrypsin-like activity (LLVY), c20S
# Type: biochemical
# cond: LLVY c20S Hu 1 h CONT: IC50 (nM), succinyl-Leu-Leu-Val-Tyr-AMC
// return numeric value only (unit: nM, not printed)

For c20S (constitutive 20S proteasome) (Homo sapiens, UniProt P20618+P28074), provide IC50 of COCCC(=O)N[C@H](C)C(=O)N[C@@H](Cc1ccc(OC)cc1)C(=O)N[C@@H](CC1CCCC1)C(=O)[C@@]1(C)CO1 please.
12800

For c20S (constitutive 20S proteasome) (Homo sapiens, UniProt P20618+P28074), provide IC50 of COc1ccc(C[C@H](NC(=O)[C@@H](C)NC(=O)c2cnc(C)s2)C(=O)N[C@@H](CC2CCCC2)C(=O)[C@@]2(C)CO2)cc1 please.
1360

For c20S (constitutive 20S proteasome) (Homo sapiens, UniProt P20618+P28074), provide IC50 of CCOCC(=O)N[C@@H](C)C(=O)N[C@@H](Cc1ccc(OC)cc1)C(=O)N[C@@H](CC1CCCC1)C(=O)[C@@]1(C)CO1 please.
797
